Consider the following compounds; for each one, report its pKb.
Tgt: Muscarinic acetylcholine receptor M1 (Homo sapiens)
Test details: Displacement of [3H]NMS from human muscarinic M1 receptor expressed in CHO Flp-In cells after 1 hr by microbeta liquid scintillation counting-based radioligand binding assay
Format: cell-based
Answer with the value's number alone.

Input line: Jot down pKb (Muscarinic acetylcholine receptor M1 (Homo sapiens)) of O=c1cc(-c2ccccc2OCc2ccccc2C(F)(F)F)ccn1[C@H]1CCCC[C@@H]1O (racemic) .
Output line: 4.48

Input line: Jot down pKb (Muscarinic acetylcholine receptor M1 (Homo sapiens)) of O=c1cc(-c2ccccc2NCc2ccc(-c3ccccc3)cc2)ccn1[C@H]1CCCC[C@@H]1O (racemic) .
Output line: 4.16

Input line: Jot down pKb (Muscarinic acetylcholine receptor M1 (Homo sapiens)) of O=c1cc(-c2ccccc2OCc2ccc(-c3ncco3)cc2)ccn1[C@H]1CCCC[C@@H]1O (racemic) .
Output line: 4.56

Input line: Jot down pKb (Muscarinic acetylcholine receptor M1 (Homo sapiens)) of COc1cccc(COc2ccccc2-c2ccn([C@H]3CCCC[C@@H]3O)c(=O)c2)c1 (racemic) .
Output line: 4.19

Input line: Jot down pKb (Muscarinic acetylcholine receptor M1 (Homo sapiens)) of Cn1cc(-c2ccc(COc3ccccc3-c3ccn([C@H]4CCCC[C@@H]4O)c(=O)c3)c(F)c2)cn1 (racemic) .
Output line: 4.51

Input line: Jot down pKb (Muscarinic acetylcholine receptor M1 (Homo sapiens)) of Nc1ccccc1-c1ccn([C@H]2CCCC[C@@H]2O)c(=O)c1 (racemic) .
Output line: 3.86

Input line: Jot down pKb (Muscarinic acetylcholine receptor M1 (Homo sapiens)) of O=c1cc(-c2ccccc2OCc2ccc(-c3cnn(CC4CC4)c3)cc2)ccn1[C@H]1CCCC[C@@H]1O (racemic) .
Output line: 5.13

Input line: Jot down pKb (Muscarinic acetylcholine receptor M1 (Homo sapiens)) of O=c1cc(-c2ccccc2O)ccn1[C@H]1CCCC[C@@H]1O (racemic) .
Output line: 4.1

Input line: Jot down pKb (Muscarinic acetylcholine receptor M1 (Homo sapiens)) of O=c1cc(-c2ccccc2OCc2ccc(Oc3ccccc3)cc2)ccn1[C@H]1CCCC[C@@H]1O (racemic) .
Output line: 4.71

Input line: Jot down pKb (Muscarinic acetylcholine receptor M1 (Homo sapiens)) of NC(=O)c1ccc(COc2ccccc2-c2ccn([C@H]3CCCC[C@@H]3O)c(=O)c2)cc1 (racemic) .
Output line: 4.66

Input line: Jot down pKb (Muscarinic acetylcholine receptor M1 (Homo sapiens)) of Cn1cc(-c2ccc(CNc3ccccc3-c3ccn([C@H]4CCCC[C@@H]4O)c(=O)c3)cc2)cn1 (racemic) .
Output line: 4.18

Input line: Jot down pKb (Muscarinic acetylcholine receptor M1 (Homo sapiens)) of O=c1cc(-c2ccccc2OCc2ccc(-c3cnn(Cc4ccccc4)c3)cc2)ccn1[C@H]1CCCC[C@@H]1O (racemic) .
Output line: 4.68

Input line: Jot down pKb (Muscarinic acetylcholine receptor M1 (Homo sapiens)) of O=c1cc(-c2ccccc2NCc2ccc(-c3ccncc3)cc2)ccn1[C@H]1CCCC[C@@H]1O (racemic) .
Output line: 5.03

Input line: Jot down pKb (Muscarinic acetylcholine receptor M1 (Homo sapiens)) of COc1ccccc1COc1ccccc1-c1ccn([C@H]2CCCC[C@@H]2O)c(=O)c1 (racemic) .
Output line: 4.53

Input line: Jot down pKb (Muscarinic acetylcholine receptor M1 (Homo sapiens)) of O=c1cc(-c2ccccc2OCc2ccc(-c3cccnc3)cc2)ccn1[C@H]1CCCC[C@@H]1O (racemic) .
Output line: 4.72

Input line: Jot down pKb (Muscarinic acetylcholine receptor M1 (Homo sapiens)) of Cn1cc(-c2ccc(COc3ccccc3-c3cc(=O)n([C@H]4CCCC[C@@H]4O)cn3)cc2)cn1 (racemic) .
Output line: 4.88
